Every entry's value here was drawn from ChEMBL document CHEMBL3044585.

system: Blumeria hordei; assay: Antifungal activity against Blumeria graminis f. sp. hordei assessed as control of barley powdery mildew treated 1 day before inoculation; type: functional, organism-based; settings: Blumeria hordei; read-out: IC50
EXPERIMENTAL READOUT: IC50

CO[C@H]1C[C@H](O[C@H]2[C@@H](OC)C[C@H](O[C@H]3CC[C@@]4(C)C(=CC[C@]5(O)[C@@H]4C[C@@H](OC(=O)/C=C(\C)C(C)C)[C@@]4(C)[C@]5(O)CC[C@]4(O)C(C)=O)C3)O[C@@H]2C)O[C@@H](C)[C@H]1O[C@H]1C[C@H](OC)[C@H](O[C@H]2C[C@@H](OC)[C@@H](O[C@@H]3O[C@H](CO)[C@@H](O[C@@H]4O[C@H](CO)[C@@H](O)[C@H](O)[C@H]4O)[C@H](O)[C@H]3O)[C@H](C)O2)[C@@H](C)O1 [WILFOSIDE C1GG]; 28.3 mg/L

Items follow; give IC50 for each.
1. CC(=O)c1c(C)cc2cccc(O)c2c1O
2. CO[C@H]1C[C@H](O[C@H]2[C@@H](OC)C[C@H](O[C@H]3CC[C@@]4(C)C(=CC[C@]5(O)[C@@H]4C[C@@H](OC(=O)/C=C(\C)C(C)C)[C@@]4(C)[C@]5(O)CC[C@]4(O)C(C)=O)C3)O[C@@H]2C)O[C@@H](C)[C@H]1O[C@H]1C[C@H](OC)[C@H](O[C@H]2C[C@@H](OC)[C@@H](O)[C@H](C)O2)[C@@H](C)O1 [WILFOSIDE C1N]
3. NC(=O)OC[C@H](O)[C@@H](O)[C@H](N)C(=O)N[C@H](C(=O)O)[C@H]1O[C@@H](n2cc(CO)c(=O)[nH]c2=O)[C@H](O)[C@@H]1O

[A]
["20 mg/L", "3.24 mg/L", "71.4 mg/L"]

Items follow; give IC50 for each.
1. CO[C@H]1C[C@H](O[C@H]2[C@@H](OC)C[C@H](O[C@H]3CC[C@@]4(C)C(=CC[C@]5(O)[C@@H]4C[C@@H](OC(=O)/C=C(\C)C(C)C)[C@@]4(C)[C@]5(O)CC[C@]4(O)C(C)=O)C3)O[C@@H]2C)O[C@@H](C)[C@H]1O[C@H]1C[C@H](OC)[C@H](O[C@H]2C[C@@H](OC)[C@@H](O[C@@H]3O[C@H](CO)[C@@H](O)[C@H](O)[C@H]3O)[C@H](C)O2)[C@@H](C)O1 [WILFOSIDE C1G]
2. Cc1cc(O)c2c(c1)C(=O)c1cccc(O)c1C2=O

[A]
1. 12.9 mg/L
2. 4.7 mg/L
